Below, each entry is listed alongside its reported growth.
system: RPMI-8226 leukemia; assay: NCI-60 one-dose screen, 48 h (100 = growth as untreated, 0 = no growth, -100 = all killed); details: 10 µM unless noted
The panel holds about 83,000 compounds, 20% with a hit somewhere; the sample as a whole holds those more often. Activity calls are given as the source filed them. How the source made its calls: active means growth percent below 10; inactive means the rest.

stdin: Using the record for Cc1c(N2CN3C[C@H](C)N4CN(c5c(C)n(C)n(-c6ccccc6)c5=O)CN5C[C@@H](C)N(C2)C3C54)c(=O)n(-c2ccccc2)n1C (stereo partly drawn) , report its growth.
stdout: 96% (inactive)

stdin: Next compound: C=CCOC(=O)C1=C(C)NC(=O)NC1c1c(Cl)n(C)c2ccccc12 (stereo not drawn)
stdout: 81.3% (inactive)

stdin: Next compound: `COc1ccc2c(c1)c(-c1cc(-c3cn(C)c4ccc(OC)cc34)on1)cn2C`
stdout: 84.6% (inactive)

stdin: Next compound: `COc1ccc(/C(C)=C(\c2ccc(OCCN3CCCCCC3)cc2)c2ccc(OC(=O)c3ccccc3)cc2)cc1`
stdout: 19.5% (inactive)

stdin: Next compound: `COC(=O)c1nc(-c2ccccc2)oc1S(=O)(=O)N1CCC(C(N)=O)CC1`
stdout: 41.3% (inactive)

stdin: Next compound: `COc1cc(-c2cc(-c3ccc(Nc4ncnc5cc(Cl)ccc45)cc3)nc(N3CCN(C)CC3)n2)cc(OC)c1OC`
stdout: 76.2% (inactive)

stdin: Next compound: `COc1ccccc1-n1c(-c2cc(O)ccc2C)cn2c3c(=O)[nH]c(=O)n(C)c3nc12`
stdout: 90.7% (inactive)

stdin: Next compound: `NC(=O)c1c(NC(=O)c2ccc(Cl)cc2)sc2c1CCC(=O)C2`
stdout: -14.3% (active)

###

tested on: BT-549 breast; test: NCI-60 one-dose screen, 48 h (100 = growth as untreated, 0 = no growth, -100 = all killed); conditions: 10 µM unless noted
Compounds without any hit were thinned out: in the full panel of roughly 83,000, 20% have a hit.
measured endpoint: growth (%)
Just the number please, in %, no unit attached.

Solved entries:
| compound | obs value |
| --- | --- |
| O=C1Nc2ccccc2/C1=C/c1cn(C[C@@H](O)Cn2c3ccccc3c(=O)c3ccccc32)c2ccccc12 | 73.3 |
| COc1cc(/C=C/c2cc(/C=C/c3ccc(O)c(OC)c3)n(C(=O)Nc3ccc(F)cc3)n2)ccc1O | -8.33 |
| COc1ccc(/C=C/C(=O)c2cc3c(N)c(C(=O)Nc4ccc(OC)cc4)sc3nc2C)cc1 | 24.6 |

stdin: Using the record for `Cn1cc(-c2nc(-c3c[nH]c4ccncc34)cs2)c2cc(Br)ccc21` , report its growth.
stdout: 84.2

###

system: NCI-H23 lung; assay: NCI-60 one-dose screen, 48 h (100 = growth as untreated, 0 = no growth, -100 = all killed); conditions: 10 µM unless noted
This is part of a sample that, as a whole, favours compounds with a hit. Of some 83,000 tested, about 20% had one in any assay.
measured endpoint: growth (%)
Just the number please, in %, no unit attached.

| molecule | growth / % |
| --- | --- |
| C=C1C(=O)O[C@H]2[C@H]1CC/C(COC(=O)NCc1ccc(Cn3c(=O)sn(-c4ccc(OC)cc4)c3=O)cc1)=C\CC[C@@]1(C)O[C@@H]21 | 88.2 |

stdin: Using the record for `O=C(/C=C\c1ccco1)/C=C/c1ccco1` , report its growth.
stdout: 98.6

stdin: Next molecule: `CCn1cc(CNc2ccc(C(=O)Nc3cc4cc(OC)c(OC)cc4c(C)n3)cc2)c(C)n1`
stdout: 9.61

stdin: Next molecule: `COc1ncc2cc1NS(=O)(=O)c1cccc(c1)C(=O)NCC1=CC=C(S1)c1ncnc3c1SC2=C3C`
stdout: 10.6

stdin: Next molecule: CSCCC(NC(=O)c1ccccc1)C(=O)N/N=C1\S/C(=C/c2ccc(Cl)cc2)C(=O)N1C (stereo not given)
stdout: 90
